- tested target: T1, cynomolgus monkey (Macaca fascicularis) FGF23 (R179Q) (cynomolgus monkey (Macaca fascicularis), UniProt Q9GZV9 25-251 (human entry), limits assumed)
- T1 construct: also called cynoFGF23; cynoFGF23(R179Q)
- T1 chain: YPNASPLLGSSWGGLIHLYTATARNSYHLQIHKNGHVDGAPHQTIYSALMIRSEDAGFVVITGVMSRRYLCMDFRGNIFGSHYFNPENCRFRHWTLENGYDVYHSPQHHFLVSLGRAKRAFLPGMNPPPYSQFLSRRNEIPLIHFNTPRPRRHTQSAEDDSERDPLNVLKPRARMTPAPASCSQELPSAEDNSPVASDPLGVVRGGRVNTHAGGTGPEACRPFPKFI
- test protocol: SPR, antibody captured on hIgG chip, cynoFGF23(R179Q) analyte, single cycle kinetics
Readings of KD ratio (variant antibody KD/burosumab KD) for the listed binders
Answer field: number only, no words.

[
  {
    "binder": "UGX145 (antibody, human IgG1, kappa, V domains shown, also called UGX042; LC:Y94E) VH: QVQLVQSGAEVKKPGASVKVSCKASGYTFTNHYMHWVRQAPGQGLEWMGIINPISGSTSNAQKFQGRVTMTRDTSTSTVYMELSSLRSEDTAVYYCARDIVDAFDFWGQGTMVTVSS VL: AIQLTQSPSSLSASVGDRVTITCRASQGISSALVWYQQKPGKAPKLLIYDASSLESGVPSRFSGSGSGTDFTLTISSLQPEDFATYYCQQFNDEFTFGPGTKVDIKR",
    "data value": 2
  },
  {
    "binder": "UGX175 (antibody, human IgG1, kappa, V domains shown, also called HC:A103S; A103S) VH: QVQLVQSGAEVKKPGASVKVSCKASGYTFTNHYMHWVRQAPGQGLEWMGIINPISGSTSNAQKFQGRVTMTRDTSTSTVYMELSSLRSEDTAVYYCARDIVDSFDFWGQGTMVTVSS VL: AIQLTQSPSSLSASVGDRVTITCRASQGISSALVWYQQKPGKAPKLLIYDASSLESGVPSRFSGSGSGTDFTLTISSLQPEDFATYYCQQFNDYFTFGPGTKVDIKR",
    "data value": 4
  },
  {
    "binder": "UGX204 (antibody, human IgG1, kappa, V domains shown, also called HC:S59E, LC:S52E; S59E/S52E) VH: QVQLVQSGAEVKKPGASVKVSCKASGYTFTNHYMHWVRQAPGQGLEWMGIINPISGSTENAQKFQGRVTMTRDTSTSTVYMELSSLRSEDTAVYYCARDIVDAFDFWGQGTMVTVSS VL: AIQLTQSPSSLSASVGDRVTITCRASQGISSALVWYQQKPGKAPKLLIYDAESLESGVPSRFSGSGSGTDFTLTISSLQPEDFATYYCQQFNDYFTFGPGTKVDIKR",
    "data value": 1
  },
  {
    "binder": "UGX126 (antibody, human IgG1, kappa, V domains shown, also called LC:S52D; S52D) VH: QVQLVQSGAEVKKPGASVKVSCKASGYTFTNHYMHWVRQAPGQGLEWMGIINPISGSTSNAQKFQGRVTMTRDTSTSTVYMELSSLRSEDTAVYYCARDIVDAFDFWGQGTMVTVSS VL: AIQLTQSPSSLSASVGDRVTITCRASQGISSALVWYQQKPGKAPKLLIYDADSLESGVPSRFSGSGSGTDFTLTISSLQPEDFATYYCQQFNDYFTFGPGTKVDIKR",
    "data value": 2
  }
]

Then there is this binder:
-- ask Requested field: KD ratio (variant antibody KD/burosumab KD). Item: UGX156 (antibody, human IgG1, kappa, V domains shown, also called HC:I54F; I54F) VH: QVQLVQSGAEVKKPGASVKVSCKASGYTFTNHYMHWVRQAPGQGLEWMGIINPFSGSTSNAQKFQGRVTMTRDTSTSTVYMELSSLRSEDTAVYYCARDIVDAFDFWGQGTMVTVSS VL: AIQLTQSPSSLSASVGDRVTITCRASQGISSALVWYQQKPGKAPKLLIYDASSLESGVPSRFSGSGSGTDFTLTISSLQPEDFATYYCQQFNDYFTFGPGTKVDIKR
-- reply 6
